src = patent US20260116991A1

Examples of binders with documented kon follow.
Target Or Test System: T1, human GPC3-His protein (human, UniProt P51654 25-559)
T1 construct: also called human GPC3 protein; not shown: His tag
Assay: SPR, antibody captured on Protein A chip, human GPC3-His analyte;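 also: measured at 25 °C flow cell, human GPC3-His injected at five concentrations up to 200 nM, 240 s association, up to 600 s dissociation, double-referenced, fitted to Langmuir 1:1 model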
State the answer as a number, implicitly in M⁻¹ s⁻¹.

F2.39.2 (antibody, human IgG1, kappa, V domains shown, Human-murine chimeric antibody) VH: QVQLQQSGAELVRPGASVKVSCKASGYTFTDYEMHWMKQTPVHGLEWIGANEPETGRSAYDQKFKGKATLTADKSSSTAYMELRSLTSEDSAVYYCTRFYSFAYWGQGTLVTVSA VL: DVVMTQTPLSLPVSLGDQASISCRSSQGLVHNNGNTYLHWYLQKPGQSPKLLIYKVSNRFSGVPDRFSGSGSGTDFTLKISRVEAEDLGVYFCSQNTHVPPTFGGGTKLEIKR: 302000

// returns reported kon for input F3.38.7 (antibody, human IgG1, kappa, V domains shown, Human-murine chimeric antibody) VH: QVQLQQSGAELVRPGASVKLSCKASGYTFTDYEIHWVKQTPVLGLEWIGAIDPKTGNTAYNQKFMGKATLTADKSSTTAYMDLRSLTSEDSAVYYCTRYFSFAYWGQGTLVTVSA VL: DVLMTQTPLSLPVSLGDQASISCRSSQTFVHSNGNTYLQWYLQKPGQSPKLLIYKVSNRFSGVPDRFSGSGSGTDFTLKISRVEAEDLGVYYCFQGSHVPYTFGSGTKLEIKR
362000

Can you check F1.115.8 (antibody, human IgG1, kappa, V domains shown, Human-murine chimeric antibody) VH: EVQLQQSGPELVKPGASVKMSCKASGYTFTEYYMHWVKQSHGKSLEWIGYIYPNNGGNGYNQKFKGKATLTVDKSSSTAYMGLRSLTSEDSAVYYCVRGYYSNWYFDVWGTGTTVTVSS VL: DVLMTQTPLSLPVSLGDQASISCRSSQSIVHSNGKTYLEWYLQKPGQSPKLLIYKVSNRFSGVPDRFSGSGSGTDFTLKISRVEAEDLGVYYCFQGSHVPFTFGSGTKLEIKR next?
820000

Can you check F1.110.24 (antibody, human IgG1, kappa, V domains shown, Human-murine chimeric antibody) VH: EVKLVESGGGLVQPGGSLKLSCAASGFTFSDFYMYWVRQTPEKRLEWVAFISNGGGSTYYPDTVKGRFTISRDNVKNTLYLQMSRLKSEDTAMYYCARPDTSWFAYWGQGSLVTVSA VL: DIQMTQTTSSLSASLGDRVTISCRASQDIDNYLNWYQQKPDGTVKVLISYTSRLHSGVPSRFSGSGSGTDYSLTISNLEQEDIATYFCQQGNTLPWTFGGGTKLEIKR next?
145000

Can you check F2.23.8 (antibody, human IgG1, kappa, V domains shown, Human-murine chimeric antibody) VH: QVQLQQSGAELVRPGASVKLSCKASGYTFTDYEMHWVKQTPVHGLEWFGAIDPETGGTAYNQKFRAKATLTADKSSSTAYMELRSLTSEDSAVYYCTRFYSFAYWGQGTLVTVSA VL: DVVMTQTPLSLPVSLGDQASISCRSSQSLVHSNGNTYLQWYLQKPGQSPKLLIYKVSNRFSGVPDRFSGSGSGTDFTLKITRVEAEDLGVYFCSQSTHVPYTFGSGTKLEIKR next?
161000

Can you check F2.154.1 (antibody, human IgG1, kappa, V domains shown, Human-murine chimeric antibody) VH: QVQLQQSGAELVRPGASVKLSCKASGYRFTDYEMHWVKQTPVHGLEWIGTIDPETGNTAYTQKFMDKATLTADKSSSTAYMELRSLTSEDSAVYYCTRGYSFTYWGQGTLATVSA VL: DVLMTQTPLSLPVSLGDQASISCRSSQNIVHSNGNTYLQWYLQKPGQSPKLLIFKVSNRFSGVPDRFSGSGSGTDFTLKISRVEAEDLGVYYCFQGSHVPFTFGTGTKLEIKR next?
466000

Can you check F1.3.9 (antibody, human IgG1, kappa, V domains shown, Human-murine chimeric antibody) VH: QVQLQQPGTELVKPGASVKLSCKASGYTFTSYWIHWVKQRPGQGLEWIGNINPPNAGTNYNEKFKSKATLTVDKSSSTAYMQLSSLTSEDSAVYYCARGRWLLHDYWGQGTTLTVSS VL: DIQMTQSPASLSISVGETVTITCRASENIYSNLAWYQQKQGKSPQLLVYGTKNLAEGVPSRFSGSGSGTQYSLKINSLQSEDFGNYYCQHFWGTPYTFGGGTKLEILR next?
28700

Can you check F1.83.6 (antibody, human IgG1, kappa, V domains shown, Human-murine chimeric antibody) VH: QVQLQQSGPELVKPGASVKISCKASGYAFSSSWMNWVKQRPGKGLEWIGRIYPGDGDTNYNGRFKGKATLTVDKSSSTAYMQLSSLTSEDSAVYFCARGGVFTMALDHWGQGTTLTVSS VL: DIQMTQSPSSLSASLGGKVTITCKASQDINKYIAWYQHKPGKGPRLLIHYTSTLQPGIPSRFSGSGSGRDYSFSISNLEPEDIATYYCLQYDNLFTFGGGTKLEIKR next?
83900
